- test-details: UV absorption in ethanol
- Assay type: physicochemical

molecule	UV εmax [M⁻¹ cm⁻¹]
CC(C)CC(C)OC(=O)C(=Cc1ccc(Nc2nc(Nc3ccc(C=C(C(=O)OC(C)CC(C)C)C(=O)OC(C)CC(C)C)cc3)nc(Nc3ccc(C=C(C(=O)OC(C)CC(C)C)C(=O)OC(C)CC(C)C)cc3)n2)cc1)C(=O)OC(C)CC(C)C (centres unmarked)	111000
CC(C)(C)COC(=O)C(=Cc1ccc(Nc2nc(Nc3ccc(C=C(C(=O)OCC(C)(C)C)C(=O)OCC(C)(C)C)cc3)nc(Nc3ccc(C=C(C(=O)OCC(C)(C)C)C(=O)OCC(C)(C)C)cc3)n2)cc1)C(=O)OCC(C)(C)C	110000
